Where do these numbers come from? They come from PubChem BioAssay.

# ASSAY_COMMENT: sensitizers of A549 cells to miR-34 induction, primary screen, imaging, A549 dox-inducible miR-34, nuclei and caspase counts (AID 1347080)
# REPORTED_CONDITIONS: A549 miR-34 inducible, Hoechst nuclei count, 48 h; measured here: total cells with miR-34 induction; stronger effect = lower value
Answer each item with its documented cell count.
Lab note: write the figure by itself, no unit.

Respond only with cell count recorded for `CO/N=C(\C(=O)N[C@@H]1C(=O)N2C(C(=O)O)=C(COC(N)=O)CS[C@H]12)c1ccco1`
8800

Respond only with cell count recorded for COc1cc2c(c(OC)c1OC)-c1ccc(OC)c(=O)cc1C(NC(C)=O)CC2 (stereo not given)
1510

Respond only with cell count recorded for `COc1c(C)c2c(c(O)c1C/C=C(\C)CCC(=O)OCCN1CCOCC1)C(=O)OC2`
3090

Respond only with cell count recorded for `COc1ccc(-c2coc3cc(O)ccc3c2=O)cc1`
7740

Respond only with cell count recorded for CO/N=C(\C(=O)N[C@@H]1C(=O)N2C(C(=O)O)=C(CSc3nc(=O)c(O)nn3C)CSC12)c1csc(N)n1 (stereo not given in full)
10200

Respond only with cell count recorded for `C[C@@H](C1=C(CCN(C)C)Cc2ccccc21)c1ccccn1`
7800

Respond only with cell count recorded for `CCC(=O)c1ccc(O)cc1`
7980

Respond only with cell count recorded for `CC1=C(CC(=O)O)c2cc(F)ccc2/C1=C\c1ccc(S(C)(=O)=O)cc1`
9240

Respond only with cell count recorded for CCCCC(CC)COc1ccc(-c2nc(-c3ccc(OC)cc3)nc(-c3ccc(OCC(CC)CCCC)cc3O)n2)c(O)c1 (stereo not given)
9430

Respond only with cell count recorded for `C[C@@H]1O[C@@H](O[C@H]2[C@H](Oc3cc(O)c4c(c3)O[C@H](c3ccc(O)cc3)CC4=O)O[C@H](CO)[C@@H](O)[C@@H]2O)[C@H](O)[C@H](O)[C@H]1O`
9380

Respond only with cell count recorded for `C[n+]1c2cc(N)ccc2cc2ccc(N)cc21`
1590

Respond only with cell count recorded for `Nc1nc(/C(=C/CC(=O)O)C(=O)N[C@@H]2C(=O)N3C(C(=O)O)=CCS[C@H]23)cs1`
12000

Respond only with cell count recorded for `O=C(/C=C/c1ccc(O)cc1)c1ccc(O)cc1O`
9020

Respond only with cell count recorded for COc1ccc2[nH]c(S(=O)Cc3ncc(C)c(OC)c3C)nc2n1 (stereo not given)
8340

Respond only with cell count recorded for `COC(=O)[C@@H](N)Cc1ccc(O)c(O)c1`
9830

Respond only with cell count recorded for `CCN(C)C(=O)Oc1cccc([C@H](C)N(C)C)c1`
10100

Respond only with cell count recorded for `C#C[C@]1(OC(C)=O)CC[C@H]2[C@@H]3CCC4=CC(=O)CC[C@@H]4[C@H]3CC[C@@]21C`
9170

Respond only with cell count recorded for `CCCCC(=O)Oc1ccccc1C(=O)O`
5290

Respond only with cell count recorded for `CS(=O)(=O)CCNCc1nc(-c2ccc3ncnc(Nc4ccc(OCc5cccc(F)c5)c(Cl)c4)c3c2)cs1`
7720

Respond only with cell count recorded for `CN(C)CCN(Cc1ccc(Cl)cc1)c1ccccn1`
7570

---

# ASSAY_COMMENT: suppressors of polyQ aggregation in yeast, 75Q-TubU reporter (AID 1593)
# REPORTED_CONDITIONS: Yeast 75Q polyglutamine aggregation reporter
PARAMETER_MEASURED: score
Lab note: write the figure by itself, no unit.

Respond only with score recorded for `CCCCCCCCCCCCCCCC(=O)OC/C=C(C)/C=C/C=C(C)/C=C/C1=C(C)CCCC1(C)C`
1.38

Respond only with score recorded for `CNCCc1ccccn1`
1.2

Respond only with score recorded for `CN(C)CC/C=C1\c2ccccc2Sc2ccc(Cl)cc21`
0.95

Respond only with score recorded for `CN(C)C(=O)C(CCN1CCC(O)(c2ccc(Cl)cc2)CC1)(c1ccccc1)c1ccccc1`
1.94

Respond only with score recorded for `CCCC(CCC)C(=O)O`
1.39

Respond only with score recorded for CC(CCc1ccccc1)NCC(O)c1ccc(O)c(C(N)=O)c1 (stereo not drawn)
1.61

Respond only with score recorded for CCOc1ccccc1OCC1CNCCO1 (stereo not drawn)
1.39

Respond only with score recorded for `O=C(O)C1=CCNCC1`
1.62

Respond only with score recorded for CC1(C)S[C@@H]2C(N3C(=O)[C@@H](c4ccccc4)NC3(C)C)C(=O)N2[C@H]1C(=O)O (stereo partly drawn)
1.26

Respond only with score recorded for `O=c1c(O)c(-c2ccc(O)cc2O)oc2cc(O)cc(O)c12`
1.66

Respond only with score recorded for NCC(O)CC(=O)O (stereo not drawn)
1.7

Respond only with score recorded for `NC(N)=O`
1.17

Respond only with score recorded for `CC(C)Cn1c(=O)n(C)c(=O)c2[nH]cnc21`
1.18

---

Answer each item with its documented luciferase signal.
# SYSTEM_UNDER_TEST: Mitogen-activated protein kinase 7 (Homo sapiens)
# ASSAY_COMMENT: ERK5 transactivation activators in reporter cells, primary screen, cell-based, HTS (AID 1508626);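 also: luciferase driven by Gal4-ERK5 fusion binding five Gal4 sites before minimal TATA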
# REPORTED_CONDITIONS: HeLa Gal4-ERK5 transactivation, 18 h, at 5 µM, stronger effect = higher value
Activity calls are given as the source filed them.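 The calls were made as follows: active = luciferase signal above three times the same-plate solvent-only control wells; inactive = the rest.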

Respond only with luciferase signal recorded for `CC1(C)CC[C@]2(C(=O)O)CC[C@]3(C)C(=CC[C@@H]4[C@@]5(C)CC[C@H](O)[C@@](C)(CO)[C@@H]5CC[C@]43C)[C@@H]2C1`
76 AU (inactive)

Respond only with luciferase signal recorded for `NCCCCC(=O)O`
52 AU (inactive)

Respond only with luciferase signal recorded for `O=c1[nH]c(=O)n([C@H]2C[C@H](O)[C@@H](CO)O2)cc1C(F)(F)F`
36 AU (inactive)

Respond only with luciferase signal recorded for `NCCCC(O)(P(=O)(O)O)P(=O)(O)O`
144 AU (inactive)

Respond only with luciferase signal recorded for `C[C@H]1C(=O)CC[C@@H]2[C@]1(C)CC[C@H]1[C@@]2(C)CC[C@@]2(C)[C@@H]3CC(C)(C)CC[C@]3(C)CC[C@]12C`
88 AU (inactive)

Respond only with luciferase signal recorded for COC(=O)C[C@H]1C2(C)CC34OC5(C)O[C@@]6([C@H](OC)C(OC(=O)C(C)C)[C@]7(C)C(/C(=C(/OC)C(C)C)C(=O)O[C@H]7c7ccoc7)[C@@]6(O5)[C@H](OC)[C@@]3(OC)C2OC(C)=O)[C@]14C (stereo not given in full)
20 AU (inactive)

Respond only with luciferase signal recorded for `C#C[C@]1(O)CC[C@H]2[C@@H]3CCC4=C(CCC(=O)C4)[C@H]3CC[C@@]21C`
44 AU (inactive)

Respond only with luciferase signal recorded for `CO[C@H]1C=C[C@@]23c4cc5c(cc4CN(C[C@@H]2O)[C@H]3C1)OCO5`
44 AU (inactive)

Respond only with luciferase signal recorded for CC(CCc1ccc(O)cc1)NCCc1ccc(O)c(O)c1 (stereo not given)
56 AU (inactive)

Respond only with luciferase signal recorded for `Nc1ccn([C@@H]2O[C@H](CO)[C@@H](O)[C@H]2O)c(=O)n1`
60 AU (inactive)

Respond only with luciferase signal recorded for `Cc1cc(OC(=O)c2c(C)cc(O)cc2O)cc(O)c1C(=O)O`
12 AU (inactive)

Respond only with luciferase signal recorded for `COc1ccc2c(c1)CC[C@@H]1[C@@H]2CC[C@]2(C)[C@@H](O)CC[C@@H]12`
36 AU (inactive)

Respond only with luciferase signal recorded for CN1[C@@H]2CC[C@H]1CC(OC(c1ccccc1)c1ccccc1)C2 (stereo not given in full)
52 AU (inactive)

Respond only with luciferase signal recorded for C=CC(C1=CC(=O)C(OC)=CC1=O)c1ccccc1 (stereo not given)
60 AU (inactive)

Respond only with luciferase signal recorded for `O=C(O)c1cc(=O)c2cccc(O)c2[nH]1`
100 AU (inactive)

Respond only with luciferase signal recorded for CC(=O)c1c(O)c(C)c(O)c2c1OC1=CC(=O)C(C(C)=O)C(=O)C12C (stereo not given)
80 AU (inactive)

Respond only with luciferase signal recorded for `N[C@H](Cc1ccccc1)C(=O)O`
56 AU (inactive)

Respond only with luciferase signal recorded for `COC1=C(O)c2cc3oc(C(C)=O)c(O)c3c(O)c2C(=O)C1=O`
52 AU (inactive)

Respond only with luciferase signal recorded for `C[C@H](CCC(=O)O)[C@H]1CC[C@H]2[C@@H]3[C@H](O)C[C@@H]4C[C@H](O)CC[C@]4(C)[C@H]3C[C@H](O)[C@]12C`
28 AU (inactive)

Respond only with luciferase signal recorded for `Cc1cc(O)c(C=O)c(O)c1C(=O)O`
120 AU (inactive)

---

# ASSAY_COMMENT: HCT116 colon cancer cell growth inhibition, primary screen, CellTiter-Glo luminescence, NPC library (AID 1117342)
# REPORTED_CONDITIONS: at 20 µM (top of the series)
Answer each item with its documented inhibition of viability.
Give just the numeric value; % need not be written.

Respond only with inhibition of viability recorded for `CC(O)(P(=O)(O)O)P(=O)(O)O`
9.4

Respond only with inhibition of viability recorded for `O=C(O)C(=O)Nc1cccc(-c2nn[nH]n2)c1`
-2.9

Respond only with inhibition of viability recorded for `CC(C)=CCC[C@@](C)(O)[C@H]1CC=C(C)CC1`
-4.77

Respond only with inhibition of viability recorded for `CC(C)C[C@H](NC(=O)[C@H](CCc1ccccc1)NC(=O)CN1CCOCC1)C(=O)N[C@@H](Cc1ccccc1)C(=O)N[C@@H](CC(C)C)C(=O)[C@@]1(C)CO1`
124

Respond only with inhibition of viability recorded for O=C(CS(=O)Cc1ccco1)NC/C=C\COc1cc(CN2CCCCC2)ccn1 (centres undefined)
2.2

Respond only with inhibition of viability recorded for `O=C(O)CP(=O)(O)O`
-1.37

Respond only with inhibition of viability recorded for `Cc1ccc(Nc2c(F)cccc2Cl)c(CC(=O)O)c1`
-25.8

Respond only with inhibition of viability recorded for `O=C(O)Cn1c(C(=O)Nc2nc(-c3ccccc3Cl)cs2)cc2ccccc21`
72.1

Respond only with inhibition of viability recorded for `CCn1c(=O)c2c(nc(C=Cc3ccc(OC)c(OC)c3)n2C)n(CC)c1=O`
-3.5

Respond only with inhibition of viability recorded for `CC1(C)Oc2ccc(C#N)cc2[C@@H](N2CCCC2=O)[C@@H]1O`
17.9

Respond only with inhibition of viability recorded for `Cn1c(=O)c2c(ncn2CC2OCCO2)n(C)c1=O`
16.1

Respond only with inhibition of viability recorded for `O=C(O)c1cc(N=Nc2ccc(O)c(C(=O)O)c2)ccc1O`
20.6

Respond only with inhibition of viability recorded for `CC(=O)[C@H]1CC[C@H]2[C@@H]3C=CC4=CC(=O)CC[C@@]4(C)[C@@H]3CC[C@]12C`
14.9

Respond only with inhibition of viability recorded for `CCN(CC)CCc1nc(-c2ccccc2)no1`
-2.53

Respond only with inhibition of viability recorded for `Nc1cc(=O)[nH]c(N)n1`
-16.3

Respond only with inhibition of viability recorded for `O=c1[nH]c(=O)n([C@H]2C[C@H](O)[C@@H](CO)O2)cc1C(F)(F)F`
84

Respond only with inhibition of viability recorded for `Cc1nc2ccccc2n1Cc1ccc(Cl)cc1`
45.2

Respond only with inhibition of viability recorded for `O=C1CC[C@@H](C(=O)O)N1`
11.4

Respond only with inhibition of viability recorded for CC1=C(C(=O)OC(C)C)C(c2cccc([N+](=O)[O-])c2)C(C(=O)OC2CN(C(c3ccccc3)c3ccccc3)C2)=C(N)N1 (centres undefined)
113

Respond only with inhibition of viability recorded for `CN1CC(=O)N/C1=N/C(=O)Nc1cccc(Cl)c1`
-16.7

Respond only with inhibition of viability recorded for `COc1cc(NCc2ccc3nc(N)nc(N)c3c2C)cc(OC)c1OC`
94.9

Respond only with inhibition of viability recorded for `CN1CCC[C@@H]1Cc1c[nH]c2ccc(CCS(=O)(=O)c3ccccc3)cc12`
36.8

Respond only with inhibition of viability recorded for `Nc1ccc2cc3ccc(N)cc3nc2c1`
104

Respond only with inhibition of viability recorded for Cc1ccc2c(c1)c1c3n2CCNC3CCC1 (centres undefined)
44

Respond only with inhibition of viability recorded for `CN1C[C@H]2c3ccccc3Oc3ccc(Cl)cc3[C@@H]2C1`
39.3

Respond only with inhibition of viability recorded for CCn1ccnc1CC1COc2ccccc2O1 (centres undefined)
1.63

Respond only with inhibition of viability recorded for OC1C(O)C(O)C(O)C(O)C1O (centres undefined)
3.1

Respond only with inhibition of viability recorded for `CCOC(=O)[C@H](CCc1ccccc1)N[C@@H](C)C(=O)N1Cc2cc(OC)c(OC)cc2C[C@H]1C(=O)O`
6.7

Respond only with inhibition of viability recorded for `O=S(=O)(O)c1cc(I)c(O)c2ncccc12`
41

Respond only with inhibition of viability recorded for `Clc1ccc(Nc2nnc(Cc3ccncc3)c3ccccc23)cc1`
36

Respond only with inhibition of viability recorded for `CCCCCCCCCCCCCCCCCC[N+](C)(C)CCC[Si](OC)(OC)OC`
12.9

Respond only with inhibition of viability recorded for `C=CC(=O)Nc1cc2c(Nc3ccc(F)c(Cl)c3)ncnc2cc1OCCCN1CCOCC1`
112

Respond only with inhibition of viability recorded for `O=S(=O)(c1cccc2cnccc12)N1CCCNCC1`
24.3

Respond only with inhibition of viability recorded for `CC(=O)OCC(=O)[C@@]1(OC(C)=O)[C@@H](C)C[C@H]2[C@@H]3C[C@H](F)C4=CC(=O)C=C[C@]4(C)[C@@]3(F)[C@@H](O)C[C@@]21C`
17.6

Respond only with inhibition of viability recorded for `O=[N+]([O-])c1cncn1CCN1CCOCC1`
-5

Respond only with inhibition of viability recorded for `OC(CCCN1CCCCC1)(c1ccccc1)c1ccccc1`
6.1

Respond only with inhibition of viability recorded for `COc1cc(O)c(C(=O)c2ccccc2)cc1S(=O)(=O)O`
-1.4

Respond only with inhibition of viability recorded for `O=C(CCCN1CCC(O)(c2ccc(Cl)cc2)CC1)c1ccc(F)cc1`
63.5

Respond only with inhibition of viability recorded for `CCCCOc1cc(C(=O)OCCN(CC)CC)ccc1N`
66

Respond only with inhibition of viability recorded for CC(=O)CC(c1ccc([N+](=O)[O-])cc1)c1c(O)c2ccccc2oc1=O (centres undefined)
4.3

Respond only with inhibition of viability recorded for `CCN[C@H]1CN(CCCOC)S(=O)(=O)c2sc(S(N)(=O)=O)cc21`
6.4

Respond only with inhibition of viability recorded for `C#C[C@]1(O)CC[C@H]2[C@@H]3CCc4cc(OC5CCCC5)ccc4[C@H]3CC[C@@]21C`
101

Respond only with inhibition of viability recorded for Cc1cc(C(C#N)c2ccc(Cl)cc2)c(Cl)cc1NC(=O)c1cc(I)cc(I)c1O (centres undefined)
125

Respond only with inhibition of viability recorded for `CN(N=O)C(=O)N[C@@H]1[C@@H](O)[C@H](O)[C@@H](CO)O[C@@H]1O`
-6.13
